test system: Mycobacterium tuberculosis; assay: Antimicrobial activity against Mycobacterium tuberculosis H37Rv by Lowenstein and Jensen method; format: functional; conditions: Mycobacterium tuberculosis, H37Rv
reportedMetric: log10(MIC) (log10 of the value in µg/mL)
log10 MIC, µg/mL

Recorded log10(MIC), per entry:
{"compound": "N#Cc1ccc(Nc2nc(Oc3ncnc4ccccc34)nc(N3CCCCC3)n2)cc1C(F)(F)F", "studySystem": "Mycobacterium tuberculosis", "recordedNumber": 2.70}
{"compound": "N#Cc1ccc(Nc2nc(Oc3ncnc4ccccc34)nc(N3CCN(c4ccc(F)cc4)CC3)n2)cc1C(F)(F)F", "studySystem": "Mycobacterium tuberculosis", "recordedNumber": 1.10}
{"compound": "N#Cc1ccc(Nc2nc(Oc3ncnc4ccccc34)nc(N3CCN(C(c4ccccc4)c4ccc(Cl)cc4)CC3)n2)cc1C(F)(F)F (stereo unspecified)", "studySystem": "Mycobacterium tuberculosis", "recordedNumber": 0.80}
{"compound": "N#Cc1ccc(Nc2nc(Oc3ncnc4ccccc34)nc(N3CCN(c4cccc(C(F)(F)F)c4)CC3)n2)cc1C(F)(F)F", "studySystem": "Mycobacterium tuberculosis", "recordedNumber": 0.80}
{"compound": "N#Cc1ccc(Nc2nc(Oc3ncnc4ccccc34)nc(N3CCN(c4ccccc4)CC3)n2)cc1C(F)(F)F", "studySystem": "Mycobacterium tuberculosis", "recordedNumber": 3.00}

Proceeding to the next compound to report its log10(MIC).
Reported log10(MIC) ( N#Cc1ccc(Nc2nc(Oc3ncnc4ccccc34)nc(N3CCN(c4ccccn4)CC3)n2)cc1C(F)(F)F ) = 2.30

----------
Listing of recorded inhibition zone (IZ) by entry.
tested on: Salmonella typhi; test: Antimicrobial activity against Salmonella enterica subsp. enterica serovar Typhi MTCC 733 by paper disk diffusion method; type: functional
// note: answer is a bare numeric in mm

{"compound": "N#Cc1ccc(Nc2nc(Oc3ncnc4ccccc34)nc(N3CCN(C(c4ccccc4)c4ccc(Cl)cc4)CC3)n2)cc1C(F)(F)F (stereo not drawn)", "reportedMetric": "inhibition zone (IZ)", "recordedNumber": 27}
{"compound": "COc1ccc(CN2CCN(c3nc(Nc4ccc(C#N)c(C(F)(F)F)c4)nc(Oc4ncnc5ccccc45)n3)CC2)c(OC)c1OC", "reportedMetric": "inhibition zone (IZ)", "recordedNumber": 25}
{"compound": "N#Cc1ccc(Nc2nc(Oc3ncnc4ccccc34)nc(N3CCN(c4ccc(F)cc4)CC3)n2)cc1C(F)(F)F", "reportedMetric": "inhibition zone (IZ)", "recordedNumber": 27}
{"compound": "O=C(O)c1cn(C2CC2)c2cc(N3CCNCC3)c(F)cc2c1=O", "reportedMetric": "inhibition zone (IZ)", "recordedNumber": 30}
{"compound": "N#Cc1ccc(Nc2nc(Oc3ncnc4ccccc34)nc(N3CCN(c4ccccc4Cl)CC3)n2)cc1C(F)(F)F", "reportedMetric": "inhibition zone (IZ)", "recordedNumber": 26}

Reported inhibition zone (IZ) ( N#Cc1ccc(Nc2nc(Oc3ncnc4ccccc34)nc(N3CCOCC3)n2)cc1C(F)(F)F ) = 22

Reported inhibition zone (IZ) ( CCN1CCN(c2nc(Nc3ccc(C#N)c(C(F)(F)F)c3)nc(Oc3ncnc4ccccc34)n2)CC1 ) = 23

Reported inhibition zone (IZ) ( N#Cc1ccc(Nc2nc(Oc3ncnc4ccccc34)nc(N3CCCCC3)n2)cc1C(F)(F)F ) = 20

----------
tested on: Aspergillus niger; test: Antimicrobial activity against Aspergillus niger MTCC 282 by agar streak dilution method; type: functional
reportedMetric: MIC
A bare number is not enough; add the unit after it.

{"compound": "N#Cc1ccc(Nc2nc(Oc3ncnc4ccccc34)nc(N3CCN(C(c4ccccc4)c4ccccc4)CC3)n2)cc1C(F)(F)F", "MIC": "100 µg/mL"}
{"compound": "N#Cc1ccc(Nc2nc(Oc3ncnc4ccccc34)nc(N3CCN(c4cccc(Cl)c4Cl)CC3)n2)cc1C(F)(F)F", "MIC": "6.25 µg/mL"}
{"compound": "N#Cc1ccc(Nc2nc(Oc3ncnc4ccccc34)nc(N3CCCCC3)n2)cc1C(F)(F)F", "MIC": "100 µg/mL"}
{"compound": "COc1ccc(CN2CCN(c3nc(Nc4ccc(C#N)c(C(F)(F)F)c4)nc(Oc4ncnc5ccccc45)n3)CC2)c(OC)c1OC", "MIC": "6.25 µg/mL"}
{"compound": "N#Cc1ccc(Nc2nc(Oc3ncnc4ccccc34)nc(N3CCN(c4ccccc4F)CC3)n2)cc1C(F)(F)F", "MIC": "3.12 µg/mL"}
{"compound": "N#Cc1ccc(Nc2nc(Oc3ncnc4ccccc34)nc(N3CCN(c4cccc(C(F)(F)F)c4)CC3)n2)cc1C(F)(F)F", "MIC": "3.12 µg/mL"}
{"compound": "N#Cc1ccc(Nc2nc(Oc3ncnc4ccccc34)nc(N3CCN(c4ccccc4Cl)CC3)n2)cc1C(F)(F)F", "MIC": "50 µg/mL"}
{"compound": "COc1ccc(N2CCN(c3nc(Nc4ccc(C#N)c(C(F)(F)F)c4)nc(Oc4ncnc5ccccc45)n3)CC2)cc1", "MIC": "6.25 µg/mL"}
{"compound": "N#Cc1ccc(Nc2nc(Oc3ncnc4ccccc34)nc(N3CCN(c4ncccn4)CC3)n2)cc1C(F)(F)F", "MIC": "100 µg/mL"}
{"compound": "O=C(O)c1cn(C2CC2)c2cc(N3CCNCC3)c(F)cc2c1=O", "MIC": "1.56 µg/mL"}

Reported MIC ( N#Cc1ccc(Nc2nc(Oc3ncnc4ccccc34)nc(N3CCN(c4ccccn4)CC3)n2)cc1C(F)(F)F ) = 100 µg/mL

Reported MIC ( N#Cc1ccc(Nc2nc(Oc3ncnc4ccccc34)nc(N3CCC(Cc4ccccc4)CC3)n2)cc1C(F)(F)F ) = 100 µg/mL

Reported MIC ( N#Cc1ccc(Nc2nc(Oc3ncnc4ccccc34)nc(N3CCOCC3)n2)cc1C(F)(F)F ) = 100 µg/mL

Reported MIC ( N#Cc1ccc(Nc2nc(Oc3ncnc4ccccc34)nc(N3CCN(c4ccc(F)cc4)CC3)n2)cc1C(F)(F)F ) = 12.5 µg/mL

Reported MIC ( CC(=O)N1CCN(c2nc(Nc3ccc(C#N)c(C(F)(F)F)c3)nc(Oc3ncnc4ccccc34)n2)CC1 ) = 25 µg/mL

Reported MIC ( CC1CC(C)CN(c2nc(Nc3ccc(C#N)c(C(F)(F)F)c3)nc(Oc3ncnc4ccccc34)n2)C1 (centres undefined) ) = 25 µg/mL

Reported MIC ( N#Cc1ccc(Nc2nc(Oc3ncnc4ccccc34)nc(N3CCN(Cc4ccccc4)CC3)n2)cc1C(F)(F)F ) = 100 µg/mL

Reported MIC ( CC(C)N1CCN(c2nc(Nc3ccc(C#N)c(C(F)(F)F)c3)nc(Oc3ncnc4ccccc34)n2)CC1 ) = 100 µg/mL

Reported MIC ( N#Cc1ccc(Nc2nc(Oc3ncnc4ccccc34)nc(N3CCN(C(c4ccccc4)c4ccc(Cl)cc4)CC3)n2)cc1C(F)(F)F (centres undefined) ) = 12.5 µg/mL

Reference for the values: ChEMBL document CHEMBL3044572
